molecular target: FITC-labeled StmA leader peptide (Streptomonospora alba, N-terminal FITC-Ahx (fluorescein isothiocyanate with an amino hexyl linker)); experiment: fluorescence polarisation
pKd: −log10 of the molar value.
quantity_measured: pKd

query: Item StmE L73A (natural protein) MRPNVQIVSRDGDNFVLNLRNGEYWHLNSSAYTMLTRIADGETVDEVARDISAATSAPEQTVRDDLTEAVDQLRKAKLVEVRHS has what recorded pKd?
result: < 5.00
